Provenance of the data: patent US7923465B2

- test-system: hCB2 (Homo sapiens)
- measurement-protocol: Agonism of CB2 receptors expressed in CHO cells, forskolin cAMP assay (Protocol IX.2)
- Format: cell-based
- Parameters: expressed in transfected cells; host or cells: CHO (h-CB2/CHO, G418-selected)
- condition-set: hCB2 Agonism IC50, h-CB2/CHO cells, cAMP
- Protocol: IX. Assay for Determining Agonist and Antagonist Activity to CB1 and CB2 Receptors 2. Agonism of CB1/CB2 Receptors Expressed in CHO Cells h-CB1/CHO or h-CB2/CHO cells were grown in HAM's F12 DMEM medium (Sigma) with 10% FBS (Hyclone), 1% penicillin-streptomycin solution and 400 μg/ml of G418 (Sigma). […] At the end of incubation, cells were lysed using lysis reagent from the cAMP estimation kit and cAMP was quantitated by chemiluminescence method described in the manufacturer's instructions (DiscoveRX). […]
pIC50: −log10 of the molar value.
Outcome: Fulfilled for pIC50 of at least 8; Not fulfilled for anything lower.

Observe how each entry below is paired with its result.
Has O=C(NN(C1CCCCC1)C1CCCCC1)c1nn(-c2ccc(Cl)cc2Cl)c2c1C1CCC2C1 (stereo not drawn) [Example 239] a recorded pIC50 greater than or equal to 8?
Not fulfilled

Has O=C(NNc1ccccc1Cl)c1nn(-c2ccc(Cl)cc2Cl)c2c1C1CCC2C1 (stereo not drawn) [Example 257] a recorded pIC50 greater than or equal to 8?
Fulfilled

Has O=C(NC1CCCCC1)c1nn(-c2ccc(Br)cc2)c2c1C1CCC2C1 (stereo not drawn) [Example 275] a recorded pIC50 greater than or equal to 8?
Fulfilled

Has O=C(NCc1ccc(Cl)cc1Cl)c1nn(-c2ccc(Cl)cc2)c2c1C1CCC2C1 (stereo not drawn) [Example 223] a recorded pIC50 greater than or equal to 8?
Fulfilled

Has O=C(NNc1ccccc1F)c1nn(-c2ccc(F)cc2F)c2c1C1CCC2C1 (stereo not drawn) [Example 288] a recorded pIC50 greater than or equal to 8?
Fulfilled

Has O=C(NCc1ccc(Cl)cc1Cl)c1nn(-c2ccc(Cl)cc2Cl)c2c1C1CCC2C1 (stereo not drawn) [Example 251] a recorded pIC50 greater than or equal to 8?
Not fulfilled

Others:
Has O=C(NNc1ccccc1Br)c1nn(-c2ccc(Cl)cc2Cl)c2c1C1CCC2C1 (stereo not drawn) [Example 263] a recorded pIC50 greater than or equal to 8?
Fulfilled

Has O=C(NNc1ccc(F)cc1F)c1nn(-c2ccc(Cl)cc2Cl)c2c1C1CCC2C1 (stereo not drawn) [Example 265] a recorded pIC50 greater than or equal to 8?
Not fulfilled

Has O=C(NNc1ccc(Cl)cc1Cl)c1nn(-c2ccc(Cl)cc2Cl)c2c1C1CCC2C1 (stereo not drawn) [Example 260] a recorded pIC50 greater than or equal to 8?
Fulfilled

Has O=C(NCc1ccc(F)cc1F)c1nn(-c2ccc(Cl)cc2Cl)c2c1C1CCC2C1 (stereo not drawn) [Example 247] a recorded pIC50 greater than or equal to 8?
Fulfilled

Has O=C(NCc1ccccc1F)c1nn(-c2ccc(Cl)cc2Cl)c2c1C1CCC2C1 (stereo not drawn) [Example 245] a recorded pIC50 greater than or equal to 8?
Not fulfilled

====

measure-name: melting point (°C)
Report the value in °C with no unit label.

Use these answered entries as a reference point.
I'd like to know its melting point. The molecule in question is O=C(NN1CCCCC1)c1nn(-c2ccccc2Cl)c2c1C1CCC2C1 (centres unmarked)
232

I'd like to know its melting point. The molecule in question is O=C(NC1(c2ccccc2)CC1)c1nn(-c2ccc(F)cc2F)c2c1C1CCC2C1 (centres unmarked)
90

I'd like to know its melting point. The molecule in question is O=C(NC(CO)c1ccccc1)c1nn(-c2ccc(F)cc2F)c2c1C1CCC2C1 (centres unmarked)
91

I'd like to know its melting point. The molecule in question is O=C(NCc1ccccc1)c1nn(-c2ccccc2)c2c1C1CCC2C1 (centres unmarked)
115

I'd like to know its melting point. The molecule in question is "O=C(NNc1ccc(Cl)cc1Cl)c1nn(-c2ccc(F)cc2F)c2c1C1CC3CC(C1)CC2C3"
162

Others:
I'd like to know its melting point. The molecule in question is "COc1ccc(-n2nc(C(=O)NCc3ccccc3Cl)c3c2C2CC4CC(CC3C4)C2)cc1"
178

I'd like to know its melting point. The molecule in question is O=C(NCc1ccccc1)c1nn(-c2ccc(F)cc2)c2c1C1CCC2C1 (centres unmarked)
104

====

As shown below, each of these compounds has a reported melting point value.

Use these answered entries as a reference point.
I'd like to know its melting point. The compound in question is O=C(NCC1CCCCC1)c1nn(-c2ccc(Cl)cc2Cl)c2c1C1CCC2C1 (centres unmarked)
111 to 113 °C

I'd like to know its melting point. The compound in question is O=C(NCc1ccccc1)c1nn(-c2ccc(Cl)cc2Cl)c2c1C1CCC2c2ccccc21 (centres unmarked)
164 to 166 °C

I'd like to know its melting point. The compound in question is "O=C(NNc1ccc(F)cc1)c1nn(-c2ccc(Cl)cc2)c2c1C1CC3CC(C1)CC2C3"
125 to 127 °C

Next:
I'd like to know its melting point. The compound in question is O=C(NC1C2CC3CC(C2)CC1C3)c1nn(-c2ccc(F)cc2)c2c1C1CCC2C1 (centres unmarked)
196 to 198 °C

====

- test-system: hCB1 (Homo sapiens, UniProt P21554)
- Sequence (P21554 whole entry): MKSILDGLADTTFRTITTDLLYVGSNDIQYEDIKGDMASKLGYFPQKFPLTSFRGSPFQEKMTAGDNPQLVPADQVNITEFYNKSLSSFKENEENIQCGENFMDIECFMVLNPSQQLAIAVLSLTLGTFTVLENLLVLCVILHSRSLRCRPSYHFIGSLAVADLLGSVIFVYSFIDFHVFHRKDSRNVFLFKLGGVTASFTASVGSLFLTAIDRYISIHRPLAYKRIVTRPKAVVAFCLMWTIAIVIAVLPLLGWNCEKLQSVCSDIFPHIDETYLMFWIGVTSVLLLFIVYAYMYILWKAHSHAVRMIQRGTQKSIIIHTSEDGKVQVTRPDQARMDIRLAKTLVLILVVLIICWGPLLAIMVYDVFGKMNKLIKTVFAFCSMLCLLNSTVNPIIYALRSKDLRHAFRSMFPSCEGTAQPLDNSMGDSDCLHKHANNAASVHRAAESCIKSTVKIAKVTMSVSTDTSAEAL
- measurement-protocol: In vitro binding assay using hCB1-CHO membranes, [3H]-CP-55,940 displacement (Protocol II)
- Set-up: expressed in transfected cells; host or cells: CHO (hCB1-CHO, generated in-house)
Each record is given True if its reported % Displacement Protocol II is strictly below 30%. Records at or above 30% are given False.

Observe how each entry below is paired with its result.
Below 30% on % Displacement Protocol II? Entry O=C(NNc1ccccc1Cl)c1nn(-c2ccc(F)cc2F)c2c1C1CCC2C1 (stereo not drawn)
False

Below 30% on % Displacement Protocol II? Entry COC(=O)[C@@H](NC(=O)c1nn(-c2ccc(F)cc2F)c2c1C1CCC2C1)c1ccc(F)cc1 (stereo partly drawn)
False

Below 30% on % Displacement Protocol II? Entry O=C(c1nn(-c2ccc(Cl)cc2)c2c1C1CCC2C1)N1CCCCC1 (stereo not drawn)
True

Below 30% on % Displacement Protocol II? Entry Cn1nc2c(c1C(=O)NN1CCCCC1)C1CC3CC(CC2C3)C1 [Example 189a]
True

Below 30% on % Displacement Protocol II? Entry "O=C(NN1CCCCC1)c1n[nH]c2c1C1CC3CC(CC2C3)C1"
True

Others:
Below 30% on % Displacement Protocol II? Entry "C[C@@H](NC(=O)c1nn(-c2ccc(Cl)cc2)c2c1C1CC3CC(C1)CC2C3)c1ccccc1"
False

Below 30% on % Displacement Protocol II? Entry "O=C(NCc1ccccc1)c1nn(-c2ccccc2Cl)c2c1C1CC3CC(C1)CC2C3"
True

Below 30% on % Displacement Protocol II? Entry "O=C(Nc1ccccc1)c1nn(-c2ccccc2)c2c1C1CC3CC(C1)CC2C3"
True

Below 30% on % Displacement Protocol II? Entry CN(NC(=O)c1nn(-c2ccc(Cl)cc2Cl)c2c1C1CCC2c2ccccc21)c1ccc(Cl)cc1Cl (stereo not drawn)
False

Below 30% on % Displacement Protocol II? Entry "O=C(NN1CCCCC1)c1nn(-c2ccc(Cl)cc2)c2c1C1CC3CC(C1)CC2C3"
False

====

- test-system: hCB2 (Homo sapiens, UniProt P34972)
- Sequence (P34972 whole entry): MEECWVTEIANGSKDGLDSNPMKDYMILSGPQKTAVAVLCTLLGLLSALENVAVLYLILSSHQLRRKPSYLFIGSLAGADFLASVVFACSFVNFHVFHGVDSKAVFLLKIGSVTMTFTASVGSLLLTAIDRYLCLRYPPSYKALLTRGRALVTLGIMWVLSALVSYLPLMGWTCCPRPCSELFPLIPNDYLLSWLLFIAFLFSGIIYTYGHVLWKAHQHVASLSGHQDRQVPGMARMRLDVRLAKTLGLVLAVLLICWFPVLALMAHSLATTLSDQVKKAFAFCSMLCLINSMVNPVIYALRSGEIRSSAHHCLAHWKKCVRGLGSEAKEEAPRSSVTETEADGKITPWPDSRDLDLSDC
- measurement-protocol: In vitro binding assay using hCB2-CHO membranes, [3H]-CP-55,940 displacement (Protocol IV)
- Design: expressed in transfected cells; host or cells: CHO (hCB2-CHO, generated in-house)
- condition-set: 1 h; hCB2-CHO membranes, [3H]-CP-55,940 displacement; read-out: % Displacement Protocol IV
As shown below, each of these compounds has a reported inhibition at 0.3 µM value.
Report the value in % with no unit label.

Use these answered entries as a reference point.
Quick check: inhibition at 0.3 µM on hCB2 (Homo sapiens, UniProt P34972), item "O=C(NN(c1ccc(Cl)cc1Cl)C1CCCCC1)c1nn(-c2ccc(Cl)cc2)c2c1C1CC3CC(C1)CC2C3" ?
62.9

Quick check: inhibition at 0.3 µM on hCB2 (Homo sapiens, UniProt P34972), item O=C(NNc1cccc(F)c1)c1nn(-c2ccc(Cl)cc2)c2c1C1CCC2C1 (centres unmarked) ?
46.2

Quick check: inhibition at 0.3 µM on hCB2 (Homo sapiens, UniProt P34972), item "O=C(NCc1ccccn1)c1nn(-c2ccc(Cl)cc2)c2c1C1CC3CC(C1)CC2C3" ?
9.18

Quick check: inhibition at 0.3 µM on hCB2 (Homo sapiens, UniProt P34972), item COC(=O)[C@H](NC(=O)c1nn(-c2ccc(F)cc2F)c2c1C1CCC2(C)C1(C)C)c1ccccc1 (some centres unmarked) ?
65.3

Quick check: inhibition at 0.3 µM on hCB2 (Homo sapiens, UniProt P34972), item O=C(NNc1ccccc1F)c1nn(-c2ccc(Cl)cc2)c2c1C1CCC2C1 (centres unmarked) ?
13.8

Quick check: inhibition at 0.3 µM on hCB2 (Homo sapiens, UniProt P34972), item O=C(NCc1ccc(Cl)cc1)c1nn(-c2ccc(Cl)cc2)c2c1C1CCC2C1 (centres unmarked) ?
15.7

Quick check: inhibition at 0.3 µM on hCB2 (Homo sapiens, UniProt P34972), item "O=C(NNc1ccc(Cl)cn1)c1nn(-c2ccc(Cl)cc2)c2c1C1CC3CC(C1)CC2C3" ?
6.48

Quick check: inhibition at 0.3 µM on hCB2 (Homo sapiens, UniProt P34972), item CC(NC(=O)c1nn(-c2ccc(Cl)cc2)c2c1C1CC3CC(C1)CC2C3)c1ccccc1Cl (centres unmarked) ?
68

Quick check: inhibition at 0.3 µM on hCB2 (Homo sapiens, UniProt P34972), item O=C(NCc1ccco1)c1nn(-c2ccc(F)cc2F)c2c1C1CCC2C1 (centres unmarked) ?
64.9

Quick check: inhibition at 0.3 µM on hCB2 (Homo sapiens, UniProt P34972), item O=C(NN1CCCCC1)c1nn(-c2ccccc2)c2c1C1CCC2C1 (centres unmarked) ?
19.8

Others:
Quick check: inhibition at 0.3 µM on hCB2 (Homo sapiens, UniProt P34972), item O=C(NC1CCCCC1)c1nn(-c2ccccc2)c2c1C1CCC2C1 (centres unmarked) ?
70.1

Quick check: inhibition at 0.3 µM on hCB2 (Homo sapiens, UniProt P34972), item "O=C(NNc1ccccc1Br)c1nn(-c2ccc(Cl)cc2Cl)c2c1C1CC3CC(C1)CC2C3" ?
30.5

Quick check: inhibition at 0.3 µM on hCB2 (Homo sapiens, UniProt P34972), item O=C(NCc1ccc(Cl)cc1Cl)c1nn(-c2ccc(Cl)cc2Cl)c2c1C1CCC2C1 (centres unmarked) ?
60.2

Quick check: inhibition at 0.3 µM on hCB2 (Homo sapiens, UniProt P34972), item "O=C(NCCc1ccccc1)c1nn(-c2ccc(Cl)cc2Cl)c2c1C1CC3CC(C1)CC2C3" ?
6.04

Quick check: inhibition at 0.3 µM on hCB2 (Homo sapiens, UniProt P34972), item O=C(NN1CCCCC1)c1nn(-c2ccc(Cl)cc2)c2c1C1CCC2C1 (centres unmarked) ?
50.5

Quick check: inhibition at 0.3 µM on hCB2 (Homo sapiens, UniProt P34972), item O=C(NN1CCCCC1)c1nn(-c2ccc(Br)cc2)c2c1C1CCC2C1 (centres unmarked) ?
35.4

Quick check: inhibition at 0.3 µM on hCB2 (Homo sapiens, UniProt P34972), item "O=C(NNc1ccc(F)cc1F)c1nn(-c2ccc(Cl)cc2)c2c1C1CC3CC(C1)CC2C3" ?
3.94
